# target_under_test: purified LasB protein from P. aeruginosa (Pseudomonas aeruginosa, UniProt P14756)
# Construct: purchased Merck or Charles River Laboratories
# Sequence (P14756 198-498): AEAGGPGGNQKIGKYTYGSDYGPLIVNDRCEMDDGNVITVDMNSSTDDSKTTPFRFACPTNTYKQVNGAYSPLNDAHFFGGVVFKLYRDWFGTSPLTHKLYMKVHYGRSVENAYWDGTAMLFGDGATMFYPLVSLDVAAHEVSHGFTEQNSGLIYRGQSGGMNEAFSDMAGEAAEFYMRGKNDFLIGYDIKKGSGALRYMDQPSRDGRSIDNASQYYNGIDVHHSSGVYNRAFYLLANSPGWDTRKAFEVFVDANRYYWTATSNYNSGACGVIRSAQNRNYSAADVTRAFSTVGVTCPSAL
# experiment_description: Fluorometric assay to determine Ki (Abz-Ala-Gly-Leu-Ala-p-Nitro-Benzyl-Amide substrate)
# Type: biochemical
The following compounds are listed with their measured Ki values.

Task item: // query Ki value for entry O=C(O)CC1(C(=O)NCc2nc(-c3ccccc3CO)cs2)Cc2ccccc2C1 [Example 148]
Reply: 0.05 to 0.2 µM

Task item: Same read-out for CN(C)CCNS(=O)(=O)c1cccc(-c2csc(CNC(=O)C3(CC(=O)O)Cc4ccccc4C3)n2)c1 [Example 129] ?
Reply: 0.2 to 10 µM

Task item: Same read-out for NCCOc1ccccc1-c1csc(CNC(=O)C2(CC(=O)O)Cc3ccccc3C2)n1 [Example 14] ?
Reply: 0.2 to 10 µM

Task item: Same read-out for C[N+]1(CCCOc2ccc(-c3csc(CNC(=O)C4(CC(=O)[O-])Cc5ccccc5C4)n3)cc2S(C)(=O)=O)CCOCC1 [Example 61] ?
Reply: 0.05 to 0.2 µM

Task item: Same read-out for COc1cc(OCC(=O)N2CC([N+](C)(C)C)C2)ccc1-c1csc(CNC(=O)C2(CC(=O)[O-])Cc3cc(F)c(F)cc3C2)n1 [Example 64] ?
Reply: 0.05 to 0.2 µM

Task item: Same read-out for CC(=O)N1CCN(CCCn2cc(-c3csc(CNC(=O)C4(CC(=O)O)Cc5ccccc5C4)n3)cn2)CC1 [Example 106] ?
Reply: 0.05 to 0.2 µM

Task item: Same read-out for CS(=O)(=O)c1cc(-c2csc(CNC(=O)C3(CC(=O)O)Cc4ccccc4C3)n2)ccc1OCCN1CCOCC1 [Example 135] ?
Reply: < 0.05 µM

Task item: Same read-out for CN(C)CCNC(=O)c1ccc(-c2csc(CNC(=O)C3(CC(=O)O)Cc4ccccc4C3)n2)cc1 [Example 15] ?
Reply: 0.2 to 10 µM

Task item: Same read-out for O=C(O)CC1(C(=O)NCc2nc(-c3ccc(OCCCN4CCCC4)cc3)cs2)Cc2ccccc2C1 [Example 58] ?
Reply: 0.05 to 0.2 µM

Task item: Same read-out for CN(C)[C@@H]1CCN(C(=O)c2ccc(-c3csc(CNC(=O)C4(CC(=O)O)Cc5ccccc5C4)n3)cc2)C1 [Example 19] ?
Reply: 0.2 to 10 µM

Task item: Same read-out for CCc1ccccc1-c1csc(CNC(=O)C2(CC(=O)O)Cc3ccccc3C2)n1 [Example 147] ?
Reply: 0.05 to 0.2 µM

Task item: Same read-out for CN(C)C1CN(c2ccc(-c3csc(CNC(=O)C4(CC(=O)O)Cc5ccccc5C4)n3)cn2)C1 [Example 35] ?
Reply: 0.05 to 0.2 µM

Task item: Same read-out for COc1cc(OCCCN2CCCC2)ccc1-c1csc(CNC(=O)C2(CC(=O)O)Cc3cc(F)c(F)cc3C2)n1 [Example 72] ?
Reply: < 0.05 µM

Task item: Same read-out for C[n+]1ccc(CCn2cc(-c3csc(CNC(=O)C4(CC(=O)[O-])Cc5ccccc5C4)n3)cn2)cc1 [Example 117] ?
Reply: 0.2 to 10 µM

Task item: Same read-out for COc1cc(OCCC[N+]2(C)CCOCC2)ccc1-c1csc(CNC(=O)C2(CC(=O)[O-])Cc3cc(F)c(F)cc3C2)n1 [Example 70] ?
Reply: 0.05 to 0.2 µM
